Consider the following molecules; for each one, report its IC50.
target: RORγ ligand binding domain (LBD) (Homo sapiens, UniProt P51449); construct: made in house; host or cells: E. coli BL-21 (BL3), vector pDEST15; test: TR-FRET Activity Assay (ligand sensing, RORγ-LBD / coactivator peptide interaction, LANCE); format: biochemical
Sequence (P51449 269-508 limits assumed): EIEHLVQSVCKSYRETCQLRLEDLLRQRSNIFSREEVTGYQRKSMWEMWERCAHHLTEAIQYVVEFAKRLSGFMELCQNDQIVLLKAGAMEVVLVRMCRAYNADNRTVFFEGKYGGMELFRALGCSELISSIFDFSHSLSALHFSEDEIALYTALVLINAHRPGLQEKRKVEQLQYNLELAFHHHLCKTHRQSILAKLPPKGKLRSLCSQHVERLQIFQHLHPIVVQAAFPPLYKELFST
Answers are plain numbers, in nM.

The following molecules have reported results that may help.
So what does the record say about IC50 for CC(C)(C)NS(=O)(=O)c1ccc(-c2c(Cl)c(C(=O)NC3CCOCC3)c(Cl)n2CC2CCCCC2)c2ccccc12 ? 200

Look at this molecule and give its reported IC50. Cc1c(C(=O)N[C@H]2C[C@H](C(=O)O)C2)cc(-c2cc(C(C)(C)C)nc(C(C)(C)C)c2)n1CC1CCCCC1 631

# IC50 lookup, item Cc1c(C(=O)NC2CCOCC2)cc(-c2ccc(S(=O)(=O)NC(C)(C)C)c(C(C)(C)C)c2)n1CC1CCC1 631

Next:
Data request, read-out IC50, for Cc1c(C(=O)NC2(C#N)CCOCC2)cc(-c2ccc(S(=O)(=O)NC(C)(C)C)c(C(C)(C)C)c2)n1CC1CCCCC1 398
